experiment: Half life in iv dosed rat
Assay type: ADME, organism-based
reported conditions: in vivo
property: half-life (h)
Quick note: give the figure in h, leave out the unit.

Solved entries:
CCOc1ccccc1CNC(=O)c1cc(C(F)(F)F)nn1-c1cccc(CNCCNC)c1
0.5
CNCCNCc1cccc(-n2nc(C(F)(F)F)cc2C(=O)NCc2ccccc2OC)c1
2.1
CNCCNCc1cccc(-n2nc(C(F)(F)F)cc2C(=O)NCc2cccc3ccccc23)c1
1.4

Field: next compound
Looking up `CNCCNCc1cccc(-n2nc(C(F)(F)F)cc2-c2nnc(-c3ccccc3OC)o2)c1` , I found its half-life recorded as 1.8

* * *

experiment: Bioavailability in rat
Type: ADME, organism-based
reported conditions: in vivo
bioavailability values, listed per item
Quick note: unit goes after the number.

Solved entries:
CNCCNCc1cccc(-n2nc(C(F)(F)F)cc2-c2nnc(-c3ccccc3OC)o2)c1
3%
CCOc1ccccc1CNC(=O)c1cc(C(F)(F)F)nn1-c1cccc(CNCCNC)c1
2%
CNCCNCc1cccc(-n2nc(C(F)(F)F)cc2C(=O)NCc2ccccc2OC)c1
4%

Looking up `CNCCNCc1cccc(-n2nc(C(F)(F)F)cc2C(=O)NCc2cccc3ccccc23)c1` , I found its bioavailability recorded as 3%

* * *

tested target: Histone-arginine methyltransferase CARM1 (Mus musculus, UniProt Q9WVG6)
Sequence (Q9WVG6 whole entry): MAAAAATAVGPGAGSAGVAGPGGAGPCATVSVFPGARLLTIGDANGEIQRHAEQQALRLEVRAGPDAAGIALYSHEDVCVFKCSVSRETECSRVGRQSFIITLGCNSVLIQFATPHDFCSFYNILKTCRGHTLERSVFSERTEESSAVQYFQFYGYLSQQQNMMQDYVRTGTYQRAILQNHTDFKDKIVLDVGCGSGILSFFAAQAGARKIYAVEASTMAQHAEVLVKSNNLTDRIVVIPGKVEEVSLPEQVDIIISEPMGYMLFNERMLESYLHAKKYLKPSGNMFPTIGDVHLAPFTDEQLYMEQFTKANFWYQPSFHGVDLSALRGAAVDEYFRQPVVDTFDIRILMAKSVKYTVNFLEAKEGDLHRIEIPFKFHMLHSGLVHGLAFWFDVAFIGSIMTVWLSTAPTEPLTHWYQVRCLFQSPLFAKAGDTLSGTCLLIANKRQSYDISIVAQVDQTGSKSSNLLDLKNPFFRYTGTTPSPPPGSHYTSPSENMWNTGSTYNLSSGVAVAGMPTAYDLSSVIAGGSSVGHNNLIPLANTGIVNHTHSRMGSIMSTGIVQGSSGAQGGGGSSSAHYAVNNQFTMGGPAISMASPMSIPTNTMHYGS
experiment: Inhibition of N-terminal His-tagged mouse recombinant CARM1 expressed in Sf9 cells by microbeta counting
property: IC50

Solved entries:
COc1ccccc1CNC(=O)c1cc(C(F)(F)F)nn1-c1cccc(CNC(=O)[C@H](C)O)c1
> 20 µM
COc1ccccc1CNC(=O)c1cc(C(F)(F)F)nn1-c1cccc(CNC2CCNC2)c1 (stereo not given)
> 20 µM
CNCCNC(=O)c1cccc(-n2nc(C(F)(F)F)cc2C(=O)NCc2ccccc2OC)c1
> 20 µM
CNCCNCc1cccc(-n2nc(C(F)(F)F)cc2C(=O)NCc2ccccc2)c1
> 10 µM

Field: next compound
Looking up `CNCCNCc1cccc(-n2nc(C(F)(F)F)cc2C(=O)NCc2ccccc2N)c1` , I found its IC50 recorded as > 10 µM

* * *

IC50 values, listed per item
tested target: Histone-arginine methyltransferase CARM1 (Mus musculus)
experiment: Inhibition of N-terminal His-tagged mouse recombinant CARM1 expressed in Sf9 cells by microbeta counting

CNCCNCc1ccc2c(c1)n1nc(C(F)(F)F)cc1c(=O)n2Cc1ccccc1OC
> 10 µM

Sample `COc1ccccc1CNC(=O)c1cc(C(F)(F)F)nn1-c1cccc(-c2n[nH]c([C@H](C)N)n2)c1` , system: Histone-arginine methyltransferase CARM1 (Mus musculus). Its IC50 is > 20 µM

Sample `COc1ccccc1CNC(=O)c1cc(C(F)(F)F)nn1-c1cccc(-c2noc([C@H](C)N)n2)c1` , system: Histone-arginine methyltransferase CARM1 (Mus musculus). Its IC50 is > 20 µM

Sample `CNCCNCc1cc(-n2nc(C(F)(F)F)cc2C(=O)NCc2ccccc2OC)cc(C(F)(F)F)c1` , system: Histone-arginine methyltransferase CARM1 (Mus musculus). Its IC50 is > 20 µM

Sample `COc1ccccc1CNC(=O)c1cc(C(F)(F)F)nn1-c1cccc(CCNC(=O)[C@H](C)N)c1` , system: Histone-arginine methyltransferase CARM1 (Mus musculus). Its IC50 is > 20 µM
